Target: Sko1 (UniProt Q02100)
Sequence: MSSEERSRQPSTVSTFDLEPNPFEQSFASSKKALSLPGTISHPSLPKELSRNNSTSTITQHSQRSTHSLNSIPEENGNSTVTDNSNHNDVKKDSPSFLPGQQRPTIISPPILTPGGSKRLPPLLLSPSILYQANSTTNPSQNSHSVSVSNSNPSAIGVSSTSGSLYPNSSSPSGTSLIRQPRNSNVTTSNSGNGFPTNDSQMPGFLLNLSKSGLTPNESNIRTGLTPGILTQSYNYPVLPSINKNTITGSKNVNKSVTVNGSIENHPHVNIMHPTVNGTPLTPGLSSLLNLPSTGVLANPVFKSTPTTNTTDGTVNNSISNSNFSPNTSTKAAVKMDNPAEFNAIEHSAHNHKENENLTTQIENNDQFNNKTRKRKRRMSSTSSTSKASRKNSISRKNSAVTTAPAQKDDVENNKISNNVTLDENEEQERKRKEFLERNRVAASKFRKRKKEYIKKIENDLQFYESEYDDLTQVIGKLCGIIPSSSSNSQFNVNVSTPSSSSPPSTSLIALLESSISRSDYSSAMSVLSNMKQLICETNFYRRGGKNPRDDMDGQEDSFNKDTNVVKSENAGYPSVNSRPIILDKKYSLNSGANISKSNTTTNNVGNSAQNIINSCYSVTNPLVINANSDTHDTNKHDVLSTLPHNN
Assay: PBM E-score (8-mer binding enrichment) (E-score (-0.5 to 0.5)); higher = stronger / more preferred TF binding
Conditions: protein concentration: 200 nM; construct: GST-full length
The full ranking holds about 33,000 sequences; the median of “E-score (-0.5 to 0.5)” is about -0.032, and the highest 2% start at about 0.36. Only a selection was taken, and the highest values are over-represented in it overall.
reported_endpoint: PBM E-score
// response body must contain only the number

Noted for GAAGGAAC : its PBM E-score reads -0.138

Noted for ATTCATCG : its PBM E-score reads -0.0686

Noted for ACTACGCG : its PBM E-score reads 0.245

Noted for CGACGTCA : its PBM E-score reads 0.486

Noted for CGACGTCG : its PBM E-score reads 0.209

Noted for GGCTACAA : its PBM E-score reads -0.0783

Noted for ACGTGCGC : its PBM E-score reads 0.381

Noted for ACCTACGG : its PBM E-score reads -0.217

Noted for ACGTGCGG : its PBM E-score reads 0.308

Noted for AAGTCGTG : its PBM E-score reads 0.00032

Noted for CCGTCGTA : its PBM E-score reads 0.11

Noted for GCGTCGTA : its PBM E-score reads 0.234

Noted for GCTACGGA : its PBM E-score reads -0.0597

Noted for CCGTGTGC : its PBM E-score reads -0.179

Noted for ACGTGTGC : its PBM E-score reads 0.388

Noted for ATGTGTGG : its PBM E-score reads -0.144

Noted for AACTACGT : its PBM E-score reads 0.455

Noted for CCAGTGGG : its PBM E-score reads -0.107

Noted for CCGTCGTC : its PBM E-score reads -0.0549

Noted for CCGTACTC : its PBM E-score reads -0.132

Noted for ACGTTTAC : its PBM E-score reads 0.345

Noted for AGACGTCA : its PBM E-score reads 0.484

Noted for ATGTACTG : its PBM E-score reads -0.0689

Noted for CCGTGCGC : its PBM E-score reads -0.067

Noted for ACTACGTA : its PBM E-score reads 0.484

Noted for AGGTTTAT : its PBM E-score reads 0.0336

Noted for ACCTACGC : its PBM E-score reads 0.293

Noted for GGCCGTCA : its PBM E-score reads -0.184

Noted for AGACGTCT : its PBM E-score reads 0.271

Noted for ACGTACTA : its PBM E-score reads 0.426

Noted for ACGTTTAG : its PBM E-score reads 0.355

Noted for ACGTACTG : its PBM E-score reads 0.412

Noted for CCAAAGAC : its PBM E-score reads -0.098

Noted for GAGATCCC : its PBM E-score reads -0.171

Noted for ACGTACTC : its PBM E-score reads 0.432
